Origin of measurements: PubChem BioAssay AID624139

molecular target: Nuclear factor NF-kappa-B p105 subunit (Homo sapiens); test: small molecules binding NF-kappa-B p105/p50 – biochemical, small molecule microarray, anti-His fluorescence, primary screen (AID 624139);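 note: probe protein is his-tagged human p50 processed subunit at 1 µg/ml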
About 220 (1.3%) of roughly 17,000 compounds were called active. Many of the other results were omitted from the sample, so actives are more common in it than they were.
Parameter: outcome

Below, each entry is followed by its recorded outcome result.
C[C@@H]1CN([C@H](C)CO)C(=O)c2cccc(NS(=O)(=O)c3ccc(Cl)cc3)c2O[C@@H]1CN(C)C(=O)Nc1cccc2ccccc12; inactive
Cc1sc2nc(SCC(=O)Nc3ccccc3C(F)(F)F)nc(N)c2c1C; inactive
C[C@H]1CN([C@@H](C)CO)C(=O)c2cc(NC(=O)Nc3cccc4ccccc34)ccc2O[C@@H]1CN(C)C; inactive
C[C@@H]1CCCCO[C@@H](CN(C)Cc2ccncc2)[C@H](C)CN([C@@H](C)CO)C(=O)c2cc(NS(=O)(=O)c3ccccc3)ccc2O1; inactive
COc1ccc(S(=O)(=O)Nc2cccc3c2O[C@@H](CN(C)S(=O)(=O)c2ccc(F)cc2)[C@H](C)CN([C@H](C)CO)C3=O)cc1; inactive
C=C(CC/C=C(\C)C(=O)O)C1(O)CC=C(C)CC1 (stereo not drawn); inactive
C[C@@H]1CCCCO[C@H](CN(C)C)[C@@H](C)CN([C@H](C)CO)C(=O)c2cc(N(C)C)ccc2O1; inactive

As a next step, examine the compound that follows.
Form field: reported outcome of COc1ccc(CN(C)C[C@H]2Oc3ccc(NC(=O)CCN4CCOCC4)cc3C(=O)N([C@@H](C)CO)C[C@H]2C)cc1 inactive
